Sourced from patent US10072023B2

Assay: Absorbance at photostationary state (PSS) under simulated sunlight or 365 nm light
Type: physicochemical
Settings: ratio of PSS under 365 nm light to PSS under full spectrum light (without UV blocking film)
recordedMetric: sensitivity index
Numbers only.

Here are 5 molecules. What values of sensitivity index were reported for them?
1. Cc1ccc(-c2sc(-c3cccs3)cc2C2=C(c3cc(-c4cccs4)sc3-c3ccc(C)s3)C(F)(F)C(F)(F)C2(F)F)s1 [S027]
2. COc1cc(OC)cc(-c2cc(C3=C(c4cc(-c5cc(OC)cc(OC)c5)sc4-c4cc(OC)cc(OC)c4)C(F)(F)C(F)(F)C3(F)F)c(-c3cc(OC)cc(OC)c3)s2)c1 [S097]
3. FC1(F)C(c2cc(-c3ccc(Cl)cc3)sc2-c2ccc(Cl)cc2)=C(c2cc(-c3ccc(Cl)cc3)sc2-c2ccc(Cl)cc2)C(F)(F)C1(F)F [S056]
4. CC(C)(C)c1ccc(-c2sc(-c3cccs3)cc2C2=C(c3cc(-c4cccs4)sc3-c3ccc(C(C)(C)C)cc3)C(F)(F)C(F)(F)C2(F)F)cc1 [S052]
5. COc1ccc(-c2cc(C3=C(c4cc(-c5ccc(OC)cc5)sc4-c4ccc(OC)cc4)C(F)(F)C(F)(F)C3(F)F)c(-c3ccc(OC)cc3)s2)cc1 [S054]

[1.80, 2.82, 2.73, 1.54, 2.53]

###

Would you kindly list Absorbance at PSS, 365 nm for each of these compounds?
Experiment: Absorbance at photostationary state (PSS) under simulated sunlight or 365 nm light
Format: physicochemical
Settings: 365 nm light source; 2.0×10^−5 M in triglyme
Give bare numbers.

Completed entries (count: 8):
structureSmilesString	Absorbance at PSS, 365 nm
CC(C)(C)c1ccc(-c2cc(C3=C(c4cc(-c5ccc(C(C)(C)C)cc5)sc4-c4ccc(C(C)(C)C)cc4)C(F)(F)C(F)(F)C3(F)F)c(-c3ccc(C(C)(C)C)cc3)s2)cc1	0.233
c1ccc(-c2nc(-c3cc(-c4cccs4)sc3-c3cccs3)c(-c3cc(-c4cccs4)sc3-c3cccs3)s2)cc1	0.302
Cc1cc(-c2cc(C3=C(c4cc(-c5cc(C)c(C)s5)sc4-c4cc(C)c(C)s4)C(F)(F)C(F)(F)C3(F)F)c(-c3cc(C)c(C)s3)s2)sc1C	0.363
COc1ccc(-c2cc(C3=C(c4cc(-c5ccc(OC)s5)sc4-c4ccc(OC)s4)C(F)(F)C(F)(F)C3(F)F)c(-c3ccc(OC)s3)s2)s1	0.244
CC(C)(C)c1ccc(-c2cc(C3=C(c4cc(-c5ccc(C(C)(C)C)s5)sc4-c4ccc(OCCCO)cc4)C(F)(F)C(F)(F)C3(F)F)c(-c3ccc(OCCCO)cc3)s2)s1	0.322
CCOCCOCCOCCOc1ccc2c(C3=C(c4c(-c5ccc(C(C)(C)C)cc5)oc5cc(OCCOCCOCCOCC)ccc45)C(F)(F)C(F)(F)C3(F)F)c(-c3ccc(C(C)(C)C)cc3)oc2c1	0.455
CC(C)(C)c1ccc(-c2oc3cc(O)ccc3c2C2=C(c3c(-c4ccc(C(C)(C)C)cc4)oc4cc(O)ccc34)C(F)(F)C(F)(F)C2(F)F)cc1	0.398
COc1cccc(-c2cc(C3=C(c4cc(-c5cccc(OC)c5)sc4-c4cccc(OC)c4)C(F)(F)C(F)(F)C3(F)F)c(-c3cccc(OC)c3)s2)c1	0.183

Batch lookup, Absorbance at PSS, 365 nm per entry.
1. CC(C)CCOc1ccc(-c2cc(C3=C(c4cc(-c5ccc(OCCC(C)C)cc5)sc4-c4ccc(OCCC(C)C)cc4)C(F)(F)C(F)(F)C3(F)F)c(-c3ccc(OCCC(C)C)cc3)s2)cc1
2. CC(C)(C)c1ccc(-c2sc(-c3ccc(Cl)cc3)cc2C2=C(c3cc(-c4ccc(Cl)cc4)sc3-c3ccc(C(C)(C)C)cc3)C(F)(F)C(F)(F)C2(F)F)cc1
3. FC1(F)C(c2nc(-c3ccccc3)sc2-c2ccccc2)=C(c2nc(-c3ccccc3)sc2-c2ccccc2)C(F)(F)C1(F)F
4. CC(C)(C)c1ccc(-c2cc(C3=C(c4cc(-c5sc(C(C)(C)C)cc5C(=O)O)sc4-c4ccc(C(=O)O)s4)C(F)(F)C(F)(F)C3(F)F)c(-c3ccc(C(=O)O)s3)s2)s1
5. CC(C)(C)c1ccc(-c2cc(C3=C(c4cc(-c5ccc(C(C)(C)C)s5)sc4-c4ccc(C(C)(C)C)s4)C(F)(F)C(F)(F)C3(F)F)c(-c3ccc(C(C)(C)C)s3)s2)s1
6. COc1ccc(-c2sc(-c3ccc(/C=C/C=C/c4ccccc4)cc3)cc2C2=C(c3cc(-c4ccc(/C=C/C=C/c5ccccc5)cc4)sc3-c3ccc(OC)cc3)C(F)(F)C(F)(F)C2(F)F)cc1

[0.311, 0.22, 0.416, 0.344, 0.372, 0.564]

###

Assay: Absorbance at photostationary state (PSS) under simulated sunlight or 365 nm light
Type: physicochemical
Settings: 365 nm light source; 2.0×10^−5 M in triglyme
Give Absorbance at PSS, 365 nm for every item shown.
One number for each entry.

Reference set (4 entries):
compound	reading
COCCC[Si](CCCOC)(CCCOC)c1ccc(-c2cc(C3=C(c4cc(-c5ccc([Si](CCCOC)(CCCOC)CCCOC)s5)sc4-c4ccc([Si](CCCOC)(CCCOC)CCCOC)s4)C(F)(F)C(F)(F)C3(F)F)c(-c3ccc([Si](CCCOC)(CCCOC)CCCOC)s3)s2)s1 [S138]	0.337
COc1ccc(-c2oc3ccc(OC)cc3c2C2=C(c3c(-c4ccc(OC)cc4)oc4ccc(OC)cc34)C(F)(F)C(F)(F)C2(F)F)cc1 [S083]	0.167
COc1ccc(-c2cc(C3=C(c4cc(-c5ccc(OC)cc5)sc4-c4ccc(OC)cc4)C(F)(F)C(F)(F)C3(F)F)c(-c3ccc(OC)cc3)s2)cc1 [S054]	0.268
CCOCCOCCOCCOC(CC)(CC)c1ccc(-c2sc(-c3ccc(C(C)(C)C)s3)cc2C2=C(c3cc(-c4ccc(C(C)(C)C)s4)sc3-c3ccc(C(CC)(CC)OCCOCCOCCOCC)s3)C(F)(F)C(F)(F)C2(F)F)s1 [S128]	0.403

Now consider the entry below.
What measured Absorbance at PSS, 365 nm goes with CC(C)(C)c1ccc(-c2cc(C3=C(c4cc(-c5ccc(C(C)(C)C)s5)sc4-c4ccc(C(=O)O)s4)C(F)(F)C(F)(F)C3(F)F)c(-c3ccc(C(=O)O)s3)s2)s1 [S119] ?
0.405

###

Hi there, I'd appreciate the recorded Solubility for every entry that follows.
Assay: Solubility in indicated solvent
Assay type: physicochemical
Settings: % wt soluble in triglyme
Numbers only, in % wt.

Field: example entries. Status: answers known.
compound	Solubility, % wt
CC(C)(C)c1ccc(-c2sc(-c3ccc(C4(C)OCCO4)cc3)cc2C2=C(c3cc(-c4ccc(C5(C)OCCO5)cc4)sc3-c3ccc(C(C)(C)C)cc3)C(F)(F)C(F)(F)C2(F)F)cc1 [S066]	2.5
Cc1c(-c2ccccc2)sc(-c2ccccc2)c1C1=C(c2c(-c3ccccc3)sc(-c3ccccc3)c2C)C(F)(F)C(F)(F)C1(F)F [S017]	1
FC1(F)C(c2cc(-c3ccccc3)sc2-c2ccccc2)=C(c2cc(-c3ccc(Cl)cc3)sc2-c2ccccc2)C(F)(F)C1(F)F [S006]	3

Consider the compound shown here: c1ccc(-c2nc(-c3nc(-c4ccccc4)sc3-c3nc(-c4ccccc4)sc3-c3ccccc3)c(-c3ccccc3)s2)cc1 [S032] What is its recorded Solubility?
1

###

Experiment: Absorbance at photostationary state (PSS) under simulated sunlight or 365 nm light
Assay type: physicochemical
Settings: ratio of PSS under 365 nm light to PSS under full spectrum light (without UV blocking film)
Hi there, I'd appreciate the recorded sensitivity index for every entry that follows.

structureSmilesString	reading
FC1(F)C(c2cc(-c3ccc(Cl)s3)sc2-c2ccc(Cl)s2)=C(c2cc(-c3ccc(Cl)s3)sc2-c2ccc(Cl)s2)C(F)(F)C1(F)F	1.53
CC(C)CCOc1ccc(-c2cc(C3=C(c4cc(-c5ccc(OCCC(C)C)cc5)sc4-c4ccc(OCCC(C)C)cc4)C(F)(F)C(F)(F)C3(F)F)c(-c3ccc(OCCC(C)C)cc3)s2)cc1	1.74

Batch of 4 compounds: report sensitivity index for each.
1. CC(C)(C)c1ccc(-c2sc(-c3ccc(C4(C)OCCO4)cc3)cc2C2=C(c3cc(-c4ccc(C5(C)OCCO5)cc4)sc3-c3ccc(C(C)(C)C)cc3)C(F)(F)C(F)(F)C2(F)F)cc1
2. CC(C)(C)c1ccc(-c2cc(C3=C(c4cc(-c5ccc(C(C)(C)C)s5)sc4-c4ccc(O)cc4)C(F)(F)C(F)(F)C3(F)F)c(-c3ccc(O)cc3)s2)s1
3. CC(C)(C)c1ccc(-c2cc(C3=C(c4cc(-c5ccc(C(C)(C)C)s5)sc4-c4ccc(C(C)(C)C)s4)C(F)(F)C(F)(F)C3(F)F)c(-c3ccc(C(C)(C)C)s3)s2)s1
4. FC1(F)C(c2nc(-c3ccccc3)sc2-c2ccccc2)=C(c2nc(-c3ccccc3)sc2-c2ccccc2)C(F)(F)C1(F)F

1. 2.28
2. 1.38
3. 1.40
4. 8.32

// for each compound below, give its sensitivity index
1. COc1ccc(-c2sc(-c3ccc(/C=C/C=C/c4ccccc4)cc3)cc2C2=C(c3cc(-c4ccc(/C=C/C=C/c5ccccc5)cc4)sc3-c3ccc(OC)cc3)C(F)(F)C(F)(F)C2(F)F)cc1
2. CC(C)(C)c1ccc(-c2cc(C3=C(c4cc(-c5ccc(C(C)(C)C)s5)sc4-c4ccc(OCCCO)cc4)C(F)(F)C(F)(F)C3(F)F)c(-c3ccc(OCCCO)cc3)s2)s1
3. CC(C)(C)COc1ccc(-c2cc(C3=C(c4cc(-c5ccc(OCC(C)(C)C)cc5)sc4-c4ccc(OCC(C)(C)C)cc4)C(F)(F)C(F)(F)C3(F)F)c(-c3ccc(OCC(C)(C)C)cc3)s2)cc1
4. COc1ccc(-c2sc(-c3cc4ccccc4s3)cc2C2=C(c3cc(-c4cc5ccccc5s4)sc3-c3ccc(OC)cc3)C(F)(F)C(F)(F)C2(F)F)cc1
5. FC(F)(F)c1ccc(-c2cc(C3=C(c4cc(-c5ccc(C(F)(F)F)cc5)sc4-c4ccc(C(F)(F)F)cc4)C(F)(F)C(F)(F)C3(F)F)c(-c3ccc(C(F)(F)F)cc3)s2)cc1
6. Cc1sc(-c2cc(C3=C(c4cc(-c5sc(C)c6c5OCCO6)sc4-c4sc(C)c5c4OCCO5)C(F)(F)C(F)(F)C3(F)F)c(-c3sc(C)c4c3OCCO4)s2)c2c1OCCO2
7. Cc1ccc(-c2oc3ccccc3c2C2=C(c3c(-c4ccc(C)s4)oc4ccccc34)C(F)(F)C(F)(F)C2(F)F)s1
8. CCOCCOCCOCCOc1ccc2c(C3=C(c4c(-c5ccc(C(C)(C)C)cc5)oc5cc(OCCOCCOCCOCC)ccc45)C(F)(F)C(F)(F)C3(F)F)c(-c3ccc(C(C)(C)C)cc3)oc2c1

1. 4.12
2. 1.10
3. 1.74
4. 1.20
5. 3.58
6. 7.25
7. 4.55
8. 3.73

Each compound below has a recorded value; state its sensitivity index.
1. COCCOCCOCCOc1ccc(-c2sc(-c3ccc(C(C)(C)C)s3)cc2C2=C(c3cc(-c4ccc(C(C)(C)C)s4)sc3-c3ccc(OCCOCCOCCOC)cc3)C(F)(F)C(F)(F)C2(F)F)cc1
2. CC(C)(C)c1ccc(-c2sc(-c3ccccc3)cc2C2=C(c3cc(-c4ccccc4)sc3-c3ccc(C(C)(C)C)cc3)C(F)(F)C(F)(F)C2(F)F)cc1
3. c1ccc(-c2nc(-c3nc(-c4ccccc4)sc3-c3nc(-c4ccccc4)sc3-c3ccccc3)c(-c3ccccc3)s2)cc1
4. Cc1c(-c2ccccc2)sc(-c2ccccc2)c1C1=C(c2c(-c3ccccc3)sc(-c3ccccc3)c2C)C(F)(F)C(F)(F)C1(F)F

1.28
2.58
18.56
5.44

// batch mode: one sensitivity index value per listed entry
1. COc1ccc(-c2cc(C3=C(c4cc(-c5ccc(OC)cc5)sc4-c4ccc(C#N)cc4)C(F)(F)C(F)(F)C3(F)F)c(-c3ccc(C#N)cc3)s2)cc1
2. COc1ccc(-c2oc3ccc(OC)cc3c2C2=C(c3c(-c4ccc(OC)cc4)oc4ccc(OC)cc34)C(F)(F)C(F)(F)C2(F)F)cc1
3. CCOCCOCCOCCOC(CC)(CC)c1ccc(-c2sc(-c3ccc(C(C)(C)C)s3)cc2C2=C(c3cc(-c4ccc(C(C)(C)C)s4)sc3-c3ccc(C(CC)(CC)OCCOCCOCCOCC)s3)C(F)(F)C(F)(F)C2(F)F)s1

2.01
7.26
1.53

Report sensitivity index for COc1cc2oc(-c3ccc(C(C)(C)C)cc3)c(C3=C(c4c(-c5ccc(C(C)(C)C)cc5)oc5cc(OC)c(OC)cc45)C(F)(F)C(F)(F)C3(F)F)c2cc1OC please.
2.32
